Origin of measurements: ChEMBL document CHEMBL5058577

test system: Fibroblast; experiment: Multiplex assay against human fibroblast; assay type: toxicity, cell-based; details: 24 h, 10 µM, compound concentration 10 uM, replicate 1
Hi! Just check whether Population Apoptotic (%) is below 60%. Below gives T, equal or above gives F.

Take the molecule Cc1sc2c(c1C)C(c1ccc(Cl)cc1)=N[C@@H](CC(=O)NCCCCCCCCNC(=O)COc1cccc3c1C(=O)N(C1CCC(=O)NC1=O)C3=O)c1nnc(C)n1-2 (stereo partly drawn) and say whether its Population Apoptotic (%) is less than 60%.
F

Take the molecule CC[C@@H](C)Nc1nc(C)nc2c(-c3ccc(OC)nc3C)c(C)nn12 and say whether its Population Apoptotic (%) is less than 60%.
T

Take the molecule Cl.NCCc1ccc(O)c(O)c1 [DOPAMINE HYDROCHLORIDE] and say whether its Population Apoptotic (%) is less than 60%.
T

Take the molecule CN[C@@H](C)C(=O)N[C@H](C(=O)N1CCC[C@H]1C(=O)Nc1snnc1-c1ccccc1)C1CCCCC1 and say whether its Population Apoptotic (%) is less than 60%.
F

Take the molecule Cl.N=C(N)NC(=O)Cc1c(Cl)cccc1Cl [GUANFACINE HYDROCHLORIDE] and say whether its Population Apoptotic (%) is less than 60%.
F

Take the molecule COc1cccc2c1c(NS(=O)(=O)c1ccc(Cl)s1)nn2Cc1cccc(CNC(=O)C(C)(C)O)c1 and say whether its Population Apoptotic (%) is less than 60%.
T

Take the molecule Br.CS(=O)(=O)Nc1c(O)ccc2c1CCCC2C1=NCCN1 (stereo not drawn) and say whether its Population Apoptotic (%) is less than 60%.
T

Take the molecule CCc1cc2cc(NS(=O)(=O)c3ccc(C#N)cc3)ccc2n(CC)c1=O and say whether its Population Apoptotic (%) is less than 60%.
T

---

tested on: Fibroblast; assay: Multiplex assay against human fibroblast; format: toxicity, cell-based; settings: 24 h, 1 µM, compound concentration 1 uM, replicate 2
Measurement type: Population Tubulin-Different-Phenotype (%)
// note: answer is a bare numeric in %

Return reported Population Tubulin-Different-Phenotype (%); argument: O=C(NCCN1CCC(n2c(=O)[nH]c3cc(Cl)ccc32)CC1)c1ccc(F)cc1 [HALOPEMIDE]
59

Return reported Population Tubulin-Different-Phenotype (%); argument: COC[C@@H](c1ccc(C(F)(F)F)cc1)N1CCN(C2(C)CCN(C(=O)c3c(C)ncnc3C)CC2)C[C@@H]1C.O=C(O)/C=C\C(=O)O [VICRIVIROC MALEATE]
41

Return reported Population Tubulin-Different-Phenotype (%); argument: CC(C)(C)c1cc(NC(=O)Nc2ccc(-c3cn4c(n3)sc3cc(OCCN5CCOCC5)ccc34)cc2)no1 [QUIZARTINIB]
44

Return reported Population Tubulin-Different-Phenotype (%); argument: Cc1onc(-c2ccccc2Cl)c1C(=O)N(C)c1ccc(Cl)cc1
56

Return reported Population Tubulin-Different-Phenotype (%); argument: Cl.N=C(N)NC(=O)Cc1c(Cl)cccc1Cl [GUANFACINE HYDROCHLORIDE]
50

Return reported Population Tubulin-Different-Phenotype (%); argument: Cl.NCCc1ccc(O)c(O)c1 [DOPAMINE HYDROCHLORIDE]
37

Return reported Population Tubulin-Different-Phenotype (%); argument: Cc1c(CC(=O)O)c2cccnc2n1Cc1ccc(S(C)(=O)=O)cc1C(F)(F)F [FEVIPIPRANT]
50

Return reported Population Tubulin-Different-Phenotype (%); argument: CN(C)C(=O)Cn1cc(-c2ccc(-c3cncc4ccccc34)cc2)cn1
61
